Data provenance is patent US20230321123A1.

molecular target: hERG potassium channel (Homo sapiens)
Sequence (Q12809 whole entry): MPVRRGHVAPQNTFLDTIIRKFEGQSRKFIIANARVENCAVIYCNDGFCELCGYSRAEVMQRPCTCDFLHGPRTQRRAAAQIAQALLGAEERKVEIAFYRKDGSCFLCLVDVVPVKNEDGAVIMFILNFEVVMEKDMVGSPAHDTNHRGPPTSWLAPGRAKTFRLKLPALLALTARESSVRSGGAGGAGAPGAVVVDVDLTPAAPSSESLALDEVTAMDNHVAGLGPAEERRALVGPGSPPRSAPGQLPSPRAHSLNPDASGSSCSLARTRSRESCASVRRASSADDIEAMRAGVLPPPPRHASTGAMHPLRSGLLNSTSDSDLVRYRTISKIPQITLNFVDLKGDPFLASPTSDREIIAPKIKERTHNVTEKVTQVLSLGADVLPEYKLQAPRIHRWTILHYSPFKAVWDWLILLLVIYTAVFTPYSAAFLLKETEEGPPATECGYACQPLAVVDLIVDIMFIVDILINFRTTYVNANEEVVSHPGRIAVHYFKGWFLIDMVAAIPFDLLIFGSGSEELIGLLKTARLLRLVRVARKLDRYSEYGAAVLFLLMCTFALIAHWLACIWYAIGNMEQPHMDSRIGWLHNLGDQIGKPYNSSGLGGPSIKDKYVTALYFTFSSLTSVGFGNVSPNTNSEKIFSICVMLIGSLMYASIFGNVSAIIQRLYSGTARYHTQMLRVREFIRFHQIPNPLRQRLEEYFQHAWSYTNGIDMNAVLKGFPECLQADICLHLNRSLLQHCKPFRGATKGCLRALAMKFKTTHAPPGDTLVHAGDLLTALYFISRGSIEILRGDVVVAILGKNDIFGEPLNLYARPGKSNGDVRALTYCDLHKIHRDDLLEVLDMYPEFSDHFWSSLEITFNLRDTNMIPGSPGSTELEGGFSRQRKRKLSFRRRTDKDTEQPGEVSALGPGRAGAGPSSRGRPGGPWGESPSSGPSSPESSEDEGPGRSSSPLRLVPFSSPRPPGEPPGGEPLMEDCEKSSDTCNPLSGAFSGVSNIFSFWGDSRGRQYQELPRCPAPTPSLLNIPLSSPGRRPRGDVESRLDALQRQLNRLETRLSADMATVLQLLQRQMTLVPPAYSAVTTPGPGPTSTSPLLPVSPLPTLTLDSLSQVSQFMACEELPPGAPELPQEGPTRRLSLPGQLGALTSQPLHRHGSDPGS
Value Kind: IC50

Prompt: Consider the compound Cc1ccc(NC(=O)C(S)CC(C)C)cc1 (stereo not shown) and give its measured IC50.
Completion: > 10 µM

====

molecular target: CYP3A4 (Homo sapiens, UniProt P08684)
Sequence (P08684 whole entry): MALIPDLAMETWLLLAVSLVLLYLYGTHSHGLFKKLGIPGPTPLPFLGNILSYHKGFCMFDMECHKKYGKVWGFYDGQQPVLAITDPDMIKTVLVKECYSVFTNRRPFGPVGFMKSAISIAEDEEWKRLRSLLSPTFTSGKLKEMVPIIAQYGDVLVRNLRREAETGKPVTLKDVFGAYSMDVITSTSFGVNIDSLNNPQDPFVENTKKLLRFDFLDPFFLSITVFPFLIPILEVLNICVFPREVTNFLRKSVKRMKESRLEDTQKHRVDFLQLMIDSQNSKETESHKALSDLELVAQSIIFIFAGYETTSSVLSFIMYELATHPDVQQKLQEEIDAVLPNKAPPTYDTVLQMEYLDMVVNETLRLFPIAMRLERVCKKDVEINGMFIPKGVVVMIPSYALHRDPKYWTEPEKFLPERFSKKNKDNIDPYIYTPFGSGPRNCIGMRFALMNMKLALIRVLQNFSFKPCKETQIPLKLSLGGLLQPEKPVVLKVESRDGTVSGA
Value Kind: pIC50
Reminder that pIC50 means the negative base-10 logarithm of the concentration expressed in mol/L.

Prompt: Checklist item: pIC50 tested on CYP3A4 (Homo sapiens, UniProt P08684), entry Cc1ccc(NC(=O)C(S)CC(C)C)cc1 (stereo not shown) , value?
Completion: 4.82

====

molecular target: ADAM17 (TACE) (Homo sapiens); test: Selectivity against human off-targets: ADAM17 (TACE); assay type: biochemical
Sequence (P78536 215-824): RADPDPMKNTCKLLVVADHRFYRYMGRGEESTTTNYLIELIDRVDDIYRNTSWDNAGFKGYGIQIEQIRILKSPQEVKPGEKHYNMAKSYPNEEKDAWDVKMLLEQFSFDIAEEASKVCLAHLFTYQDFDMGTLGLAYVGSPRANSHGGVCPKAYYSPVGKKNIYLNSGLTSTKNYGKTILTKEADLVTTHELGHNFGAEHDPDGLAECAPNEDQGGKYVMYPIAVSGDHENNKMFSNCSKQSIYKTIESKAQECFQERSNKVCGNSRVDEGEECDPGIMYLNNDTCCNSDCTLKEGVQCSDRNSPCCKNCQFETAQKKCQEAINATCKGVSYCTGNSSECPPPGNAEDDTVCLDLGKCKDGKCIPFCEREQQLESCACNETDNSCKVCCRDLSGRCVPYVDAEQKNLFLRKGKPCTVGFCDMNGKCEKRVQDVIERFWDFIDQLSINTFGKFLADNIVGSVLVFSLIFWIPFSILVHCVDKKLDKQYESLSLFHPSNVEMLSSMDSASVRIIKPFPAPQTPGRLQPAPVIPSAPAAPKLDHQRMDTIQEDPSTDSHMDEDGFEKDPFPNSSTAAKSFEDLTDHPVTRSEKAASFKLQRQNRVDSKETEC
Value Kind: IC50

Prompt: Consider the compound Cc1ccc(NC(=O)C(CC(C)C)P(=O)(O)O)cc1 (stereo not shown) and give its measured IC50.
Completion: > 100 µM

====

molecular target: LasB (Pseudomonas aeruginosa, UniProt Q02RJ6); assay: biochemical; set-up: species or system P. aeruginosa; conditions: IC50 against LasB
Sequence (Q02RJ6 198-498): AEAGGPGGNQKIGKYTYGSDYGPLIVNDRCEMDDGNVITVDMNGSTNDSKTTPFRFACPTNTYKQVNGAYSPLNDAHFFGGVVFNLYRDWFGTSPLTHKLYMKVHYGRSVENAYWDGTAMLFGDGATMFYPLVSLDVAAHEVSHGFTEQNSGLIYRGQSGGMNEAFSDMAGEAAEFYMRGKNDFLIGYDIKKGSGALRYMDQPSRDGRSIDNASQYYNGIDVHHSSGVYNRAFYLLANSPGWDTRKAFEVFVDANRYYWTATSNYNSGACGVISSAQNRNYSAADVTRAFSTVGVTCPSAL
pIC50: −log10 of the molar value.
Label rule, in plain words: pIC50 of 6 and up is Met, under 6 is Not met.

{"Compound": "Cc1ccc(NC(=O)C(CC2CCCCC2)P(=O)(O)O)cc1 (centres unmarked)", "Label Value": "Not met"}
{"Compound": "O=C(Nc1ccc(O)cc1)C(S)Cc1ccccc1 (centres unmarked)", "Label Value": "Met"}
{"Compound": "O=C(Nc1ccccc1)C(S)Cc1ccc(O)cc1 (centres unmarked)", "Label Value": "Not met"}
{"Compound": "O=C(O)CC(S)C(=O)Nc1ccc(Cl)c(Cl)c1 (centres unmarked)", "Label Value": "Not met"}
{"Compound": "CCCC(S)C(=O)Nc1ccccc1 (centres unmarked)", "Label Value": "Not met"}

Prompt: Check the entry CCCC(S)C(=O)Nc1ccc(C(C)=O)cc1 (centres unmarked) : does pIC50 equal or exceed 6?
Completion: Not met

Prompt: Check the entry CC(S)C(=O)Nc1ccc(Cl)c(Cl)c1 (centres unmarked) : does pIC50 equal or exceed 6?
Completion: Not met

Prompt: Check the entry CC(C)CC(C(=O)Nc1ccc(Cl)c(Cl)c1)P(=O)(O)O (centres unmarked) : does pIC50 equal or exceed 6?
Completion: Met

Prompt: Check the entry CCCCC(S)C(=O)Nc1ccc(OC)cc1 (centres unmarked) : does pIC50 equal or exceed 6?
Completion: Not met

Prompt: Check the entry COCC(S)C(=O)Nc1ccc(OC)cc1 (centres unmarked) : does pIC50 equal or exceed 6?
Completion: Not met

====

test: Pharmacokinetic (PK) studies in mice; type: in vivo; conditions: mouse, blood, iv, 10 mg/kg
Value Kind: half-life (min)
Write it as a number; the unit min goes unstated.

Prompt: Consider the compound Cc1ccc(NC(=O)C(S)CC(C)C)cc1 (stereo not shown) [Example 2] and give its measured half-life.
Completion: 50

====

target: LasB (Pseudomonas aeruginosa); test: biochemical; parameters: species or system P. aeruginosa; conditions: IC50 against LasB
Binarize IC50 at 2 µM; below is Yes, at or above is No.

Before answering, review these 2 worked examples.
{"Molecule": "CC(C)CC(C(=O)N[C@@H](CC(C)C)C(=O)Nc1ccc(Cl)c(Cl)c1)P(=O)(O)O (stereo partly drawn)", "Label Value": "Yes"}
{"Molecule": "Cc1ccc(NC(=O)C(CC(C)C)P(=O)(O)O)c(C)c1 (stereo not drawn)", "Label Value": "Yes"}

Continue with the next molecule.
Prompt: Report whether reported IC50 is lower than 2 µM (strictly) for CC(C)CC(C(=O)N1CCN(Cc2ccc(-c3ccc(Cl)cc3)cc2)CC1)P(=O)(O)O (stereo not drawn)
Completion: No
